target: Nuclear receptor subfamily 1 group I member 3 (Homo sapiens); experiment: qHTS assay to identify small molecule agonists of the constitutive androstane receptor (CAR) signaling pathway (AID 1224839); settings: HepG2 hCAR CYP2B6-luciferase, agonist mode, 24 h; series mostly up to 92.4 µM; note: nearly all actives have a fitted effect of over 15% in size;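 for activation: HepG2 cells stably carrying human CAR and a CYP2B6 luciferase reporter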
Inconclusive results are not listed. The source made the active and inactive calls. Calls come from the whole dose curve; as a rule, active = well fitted activation curve with a large enough effect in the repeat runs; inconclusive = weak or mixed curves; inactive = no such curve, though single readings can be large or run the other way.
Returns: one label drawn from 1 (yes) for active, 0 (no) for inactive

Enquiry: Please state the recorded outcome for this compound: Cc1cccnc1
Return: 0 (no)

Enquiry: Please state the recorded outcome for this compound: CCCSc1ccc2nc(NC(=O)OC)[nH]c2c1
Return: 1 (yes)

Enquiry: Please state the recorded outcome for this compound: OCC(CO)(CBr)CBr
Return: 0 (no)

Enquiry: Please state the recorded outcome for this compound: CCCCN(CCCC)CCCC
Return: 0 (no)

Enquiry: Please state the recorded outcome for this compound: CC(=O)OCC(=O)[C@@]12N=C(C)O[C@@H]1C[C@H]1[C@@H]3CCC4=CC(=O)C=C[C@]4(C)[C@H]3[C@@H](O)C[C@@]12C
Return: 0 (no)

Enquiry: Please state the recorded outcome for this compound: O=C(CC(C(=O)OC1CCCCC1)S(=O)(=O)O)OC1CCCCC1 (stereo unspecified)
Return: 0 (no)

Enquiry: Please state the recorded outcome for this compound: C#CCN(C)Cc1ccccc1
Return: 0 (no)

Enquiry: Please state the recorded outcome for this compound: N[C@@H](Cc1cc(I)c(Oc2cc(I)c(O)c(I)c2)c(I)c1)C(=O)O
Return: 0 (no)

Enquiry: Please state the recorded outcome for this compound: CCCCCCOCCO
Return: 0 (no)

Enquiry: Please state the recorded outcome for this compound: O=C1CCC(N2C(=O)c3ccccc3C2=O)C(=O)N1 (stereo unspecified)
Return: 0 (no)

Enquiry: Please state the recorded outcome for this compound: CCCCCCCCCCCCc1ccccc1
Return: 0 (no)

----------
molecular target: Thyrotropin-releasing hormone receptor (Homo sapiens); assay: qHTS assay to identify small molecule agonists of the thyrotropin-releasing hormone receptor (TRHR) signaling pathway (AID 1346891); details: TRHR-HEK293 calcium fluorescence, agonist mode; series mostly up to 57.6 µM;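 note: HEK293 cells expressing TRHR with calcium dye readout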
The source made the active and inactive calls. Calls follow the shape of the full dose curve.
outcome-measure: outcome

Study these solved cases before continuing.
INSERT INTO assay_data (molecule, result) VALUES
  ('CC(=O)OCC(=O)[C@@]12N=C(C)O[C@@H]1C[C@H]1[C@@H]3CCC4=CC(=O)C=C[C@]4(C)[C@H]3[C@@H](O)C[C@@]12C', 'inactive'),
  ('CCCC(C)=O', 'inactive'),
  ('CCCCCCCCCCCCCCO', 'inactive'),
  ('COCCCOc1ccnc(CS(=O)c2nc3ccccc3[nH]2)c1C (stereo not drawn)', 'inactive');

Enquiry: Entry C[Si](O[Si](C)(C)C)O[Si](C)(C)C : reported outcome = ?
Return: inactive

----------
experiment: qHTS assay to identify small molecule agonists of the progesterone receptor (PR) signaling pathway - cell viability counter screen (AID 1346799); conditions: PR-UAS-bla HEK293T viability, CellTiter-Glo luminescence, 16 h; series mostly up to 92.4 µM; note: nearly all actives have a fitted effect of over 45% in size
Results filed as inconclusive are left out. The source made the active and inactive calls. The call rests on the fitted dose curve.
Returns: one label drawn from 1.0 = active, 0.0 = inactive

Enquiry: Please state the recorded outcome for this compound: O=C(O)c1cc(C(=O)O)cc(S(=O)(=O)O)c1
Return: 0.0

Enquiry: Please state the recorded outcome for this compound: CC(C)(N)CO
Return: 0.0

Enquiry: Please state the recorded outcome for this compound: CCCCCC1=CCCC1=O
Return: 0.0

Enquiry: Please state the recorded outcome for this compound: CCCCCC(N)=O
Return: 0.0

Enquiry: Please state the recorded outcome for this compound: O=C(O)c1cc(=O)c2c(OCC(O)COc3cccc4oc(C(=O)O)cc(=O)c34)cccc2o1
Return: 0.0

Enquiry: Please state the recorded outcome for this compound: C/C=C1/CC2C=CC1C2 (centres undefined)
Return: 0.0

Enquiry: Please state the recorded outcome for this compound: C=CCOC(=O)c1ccccc1C(=O)OCC=C
Return: 0.0

Enquiry: Please state the recorded outcome for this compound: O=C(O)c1ccc(C(=O)O)cc1
Return: 0.0

Enquiry: Please state the recorded outcome for this compound: OCC(CO)(CBr)CBr
Return: 0.0

Enquiry: Please state the recorded outcome for this compound: C#CCN(C)Cc1ccccc1
Return: 0.0

Enquiry: Please state the recorded outcome for this compound: CC[C@H](C)C(=O)O[C@H]1C[C@@H](C)C=C2C=C[C@H](C)[C@H](CC[C@@H]3C[C@@H](O)CC(=O)O3)[C@H]21
Return: 1.0

Enquiry: Please state the recorded outcome for this compound: COS(C)(=O)=O
Return: 0.0

Enquiry: Please state the recorded outcome for this compound: OCCOCCOCCO
Return: 0.0

Enquiry: Please state the recorded outcome for this compound: O=C(OCCOCCOC(=O)c1ccccc1)c1ccccc1
Return: 0.0

Enquiry: Please state the recorded outcome for this compound: OC[C@H]1O[C@@](CO)(O[C@H]2O[C@H](CO)[C@@H](O)[C@H](O)[C@H]2O)[C@@H](O)[C@@H]1O
Return: 0.0

Enquiry: Please state the recorded outcome for this compound: CCCCCCCCCCCCOCCO
Return: 0.0

Enquiry: Please state the recorded outcome for this compound: CCc1ccc(CCOc2ccc(CC3SC(=O)NC3=O)cc2)nc1 (centres undefined)
Return: 0.0

Enquiry: Please state the recorded outcome for this compound: Cc1cc(C)c(C)cc1C
Return: 0.0

Enquiry: Please state the recorded outcome for this compound: Nc1ccccc1[N+](=O)[O-]
Return: 0.0

Enquiry: Please state the recorded outcome for this compound: O=C(O)[C@H](O)[C@@H](O)[C@H](O)[C@H](O)CO
Return: 0.0

Enquiry: Please state the recorded outcome for this compound: Oc1cccc2ccccc12
Return: 0.0

Enquiry: Please state the recorded outcome for this compound: O=C(O)CC(C(=O)O)C(CC(=O)O)C(=O)O (centres undefined)
Return: 0.0

Enquiry: Please state the recorded outcome for this compound: COc1ccc(Cl)cc1C(=O)NCCc1ccc(S(=O)(=O)NC(=O)NC2CCCCC2)cc1
Return: 0.0

Enquiry: Please state the recorded outcome for this compound: O=c1[nH]nnc2ccccc12
Return: 0.0

Enquiry: Please state the recorded outcome for this compound: CC(C)c1ccc(S(=O)(=O)O)cc1
Return: 0.0

Enquiry: Please state the recorded outcome for this compound: Cc1occc(=O)c1O
Return: 0.0

Enquiry: Please state the recorded outcome for this compound: O=C1CCC(N2C(=O)c3ccccc3C2=O)C(=O)N1 (centres undefined)
Return: 0.0

Enquiry: Please state the recorded outcome for this compound: CC1CCC(C(C)C)C(O)C1 (centres undefined)
Return: 0.0

Enquiry: Please state the recorded outcome for this compound: CCCCCCCCCCCCCCO
Return: 0.0

Data origin: PubChem BioAssay (Tox21)
